These data points were gathered from patent US20130338142A1.

test: Kinetic solubility study
condition_details: aqueous media, 37 °C, pH 7.4, aqueous buffer, kinetic from dmso stock
measurement_kind: solubility at 24 h (µM)
Provide the reading as a plain figure in µM.

q: Give solubility at 24 h for COc1cc(Nc2nc(-c3ccc4c(c3)CNCCO4)cn3ccnc23)ccc1N1CCOCC1 [Compound 3]
a: 100

q: Give solubility at 24 h for COc1cc(Nc2nc(-c3cnc4c(c3)NCCO4)cn3ccnc23)ccc1N1CCOCC1 [Compound 1]
a: 95

q: Give solubility at 24 h for COc1cc(Nc2nc(-c3ccc4c(c3)NCCO4)cn3ccnc23)ccc1N1CCN(C2COC2)CC1 [Compound 4]
a: 57

q: Give solubility at 24 h for c1cn2cc(-c3cnc4c(c3)NCCO4)nc(Nc3ccc(N4CCOCC4)cc3)c2n1 [Compound 28x, reference compound]
a: 9

q: Give solubility at 24 h for c1cn2cc(-c3ccc4c(c3)NCCO4)nc(Nc3ccc(N4CCN(C5COC5)CC4)cc3)c2n1 [Compound 24]
a: 33

q: Give solubility at 24 h for COc1cc(Nc2nc(-c3ccc4c(c3)NCCO4)cn3ccnc23)ccc1N1CCOCC1 [Compound 14x, reference compound]
a: 8

* * *

test: Kinetic solubility study
condition_details: aqueous media, 37 °C, pH 5.4, aqueous buffer, kinetic from dmso stock
measurement_kind: solubility at 24 h (µM)
Provide the reading as a plain figure in µM.

q: Give solubility at 24 h for COc1cc(Nc2nc(-c3cnc4c(c3)NCCO4)cn3ccnc23)ccc1N1CCOCC1 [Compound 1]
a: 95

q: Give solubility at 24 h for c1cn2cc(-c3cnc4c(c3)NCCO4)nc(Nc3ccc(N4CCOCC4)cc3)c2n1 [Compound 28x, reference compound]
a: 9

q: Give solubility at 24 h for COc1cc(Nc2nc(-c3ccc4c(c3)CNCCO4)cn3ccnc23)ccc1N1CCOCC1 [Compound 3]
a: 100

q: Give solubility at 24 h for COc1cc(Nc2nc(-c3ccc4c(c3)NCCO4)cn3ccnc23)ccc1N1CCN(C2COC2)CC1 [Compound 4]
a: 94

q: Give solubility at 24 h for c1cn2cc(-c3ccc4c(c3)NCCO4)nc(Nc3ccc(N4CCN(C5COC5)CC4)cc3)c2n1 [Compound 24]
a: 61

q: Give solubility at 24 h for COc1cc(Nc2nc(-c3ccc4c(c3)NCCO4)cn3ccnc23)ccc1N1CCOCC1 [Compound 14x, reference compound]
a: 10

* * *

test: Kinetic solubility study
condition_details: 37 °C, pH 7.4, aqueous buffer, kinetic from dmso stock
measurement_kind: solubility at 24 h (µM)
Provide the reading as a plain figure in µM.

q: Give solubility at 24 h for COc1cc(Nc2nc(-c3ccc4cn[nH]c4c3)cn3ccnc23)ccc1N1CCOCC1 [Compound 90x, reference compound]
a: 3
